- target-under-test: α-chymotrypsin (Bos taurus, UniProt P00766)
pIC50: −log10 of the molar value. Bridge positions count the residues as written; N and C are the ends. Peptide text beside a SMILES is read from it.
attribute-measured: pIC50

Would you please look over these solved cases?
compound	target-under-test	pIC50
CC[C@H](C)[C@@H]1NC(=O)[C@H](CO)NC(=O)[C@H](Cc2ccc(O)cc2)NC(=O)[C@H]([C@@H](C)O)NC(=O)[C@H](C)NC(=O)[C@H](CO)NC(=O)CNC(=O)CNC(=O)[C@@H](N)CSSC[C@@H](C(=O)N[C@@H](Cc2ccc(O)cc2)C(=O)O)NC(=O)[C@H](CCC(N)=O)NC(=O)[C@@H]2CCCN2C(=O)[C@@H]2CCCN2C1=O [CH29] (H-CGGSATYSIPPQCY-OH; disulfide 1-13; N-terminus and C-terminus assumed)	α-chymotrypsin (Bos taurus, UniProt P00766)	< 4.30
CC[C@H](C)[C@@H]1NC(=O)[C@@H]2CCCN2C(=O)[C@@H]2CCCN2C(=O)[C@H]([C@@H](C)CC)NC(=O)[C@H](CO)NC(=O)[C@H](Cc2ccccc2)NC(=O)[C@H]([C@@H](C)O)NC(=O)[C@@H](NC(=O)[C@@H](NC(=O)CN)[C@@H](C)O)CSSC[C@@H](C(=O)N[C@@H](CC(N)=O)C(=O)N2CCC[C@H]2C(=O)N[C@@H](CC(N)=O)C(=O)O)NC1=O [CH25] (H-GTCTFSIPPICNPN-OH; disulfide 3-11)	α-chymotrypsin (Bos taurus, UniProt P00766)	6.55

Find the measured pIC50: item CC[C@H](C)[C@@H]1NC(=O)[C@H](CO)NC(=O)[C@H](Cc2ccc(O)cc2)NC(=O)[C@H]([C@@H](C)O)NC(=O)[C@H](C)NC(=O)[C@H](CC(N)=O)NC(=O)CNC(=O)[C@@H](N)CSSC[C@@H](C(=O)N[C@@H](Cc2ccc(O)cc2)C(=O)NCC(=O)O)NC(=O)[C@H](CCC(N)=O)NC(=O)[C@@H]2CCCN2C(=O)[C@@H]2CCCN2C1=O [CH21] (H-CGNATYSIPPQCYG-OH; disulfide 1-12; N-terminus and C-terminus assumed) , target or system α-chymotrypsin (Bos taurus, UniProt P00766).
< 4.30

Data provenance: patent US20230416329A1
